- target: Large T antigen (Simian virus 40)
- protocolSummary: SV40 large T antigen inhibitors, biochemical (AID 1903)
- runConditions: SV40 large T antigen ATPase/helicase inhibition assay; at 20 µM; stronger effect = higher value
Among all 310,000 compounds or so, about 1,200 (0.39%) were called active. These entries were drawn from the full list. Measured potencies and affinities stand elsewhere.
Listed compounds paired with reported inhibition

{"columns": ["compound", "target", "inhibition / %"],
 "data": [
  ["O=S(=O)(c1cccs1)N1CCN(c2ccc(Cl)cc2)CC1", "Large T antigen (Simian virus 40)", 2.25],
  ["COc1ccc2c(=O)c(N3C(=O)c4ccccc4C3=O)c(C)oc2c1", "Large T antigen (Simian virus 40)", 0.21],
  ["Cc1cc(C)c(S(=O)(=O)Nc2ccc(O)cc2)c(C)c1", "Large T antigen (Simian virus 40)", 29.1],
  ["O=C1c2ccccc2CC1Sc1nnc(-c2ccccn2)o1 (stereo not drawn)", "Large T antigen (Simian virus 40)", 13.2],
  ["O=C(NC1CCCC1)C1CCCN(S(=O)(=O)c2cnc[nH]2)C1 (stereo not drawn)", "Large T antigen (Simian virus 40)", 5.21],
  ["O=C(NC(C1CC1)C1CC1)C1CCC(=O)N(CCCN2CCCC2=O)C1 (stereo not drawn)", "Large T antigen (Simian virus 40)", 8.58],
  ["Cc1cc(C)c(C)c(S(=O)(=O)Nc2ccc(O)cc2)c1C", "Large T antigen (Simian virus 40)", 30.2],
  ["CC(=O)c1ccc(N2CCN(C(=O)CCC(=O)c3cccs3)CC2)cc1", "Large T antigen (Simian virus 40)", 4.57],
  ["Cc1ccc(C(=O)N/C(=C\\c2sccc2C)C(=O)NCc2ccco2)cc1", "Large T antigen (Simian virus 40)", 7.34],
  ["O=C(CCC(=O)N1CCN(c2cccc(Cl)c2)CC1)c1cccs1", "Large T antigen (Simian virus 40)", 1.82],
  ["C=CCC(C(=O)NC(C)c1ccccc1)C(=O)NC(C)c1ccccc1 (stereo not drawn)", "Large T antigen (Simian virus 40)", 0.99],
  ["COc1ccc(/C=C(\\NC(=O)c2ccccc2)C(=O)OCC2CCCN3CCCCC23)cc1OC (stereo not drawn)", "Large T antigen (Simian virus 40)", -3.64],
  ["Cc1ccc2nc(-c3cccc(N)c3)[nH]c2c1", "Large T antigen (Simian virus 40)", 5.37],
  ["CCCCN(C(=O)CCCSc1nc2ccccc2[nH]1)c1c(N)n(Cc2ccccc2)c(=O)[nH]c1=O", "Large T antigen (Simian virus 40)", 3.22],
  ["COc1nc(NC(=O)c2ccc(F)cc2)nc(OC)c1-c1ccccc1", "Large T antigen (Simian virus 40)", 6.25],
  ["CCOC(=O)Cn1c(=NC(=O)C(C)C)sc2c(C)cc(C)cc21", "Large T antigen (Simian virus 40)", 14],
  ["Oc1ccccc1N1CCN(C(=S)NCCc2ccccc2)CC1", "Large T antigen (Simian virus 40)", 7.92],
  ["Cc1ccc(-c2nc(CS(=O)(=O)CC(=O)N3CCN(C)CC3)c(C)o2)cc1", "Large T antigen (Simian virus 40)", 6.58],
  ["O=C(O)CCc1ccc(S(=O)(=O)Nc2ccccc2C(=O)NCCc2ccccc2)cc1", "Large T antigen (Simian virus 40)", 6.21],
  ["COCC(C)n1c(SCc2nc(N)nc(Nc3ccccc3C)n2)nc2ccccc2c1=O (stereo not drawn)", "Large T antigen (Simian virus 40)", 23],
  ["O=S(=O)(c1cccs1)N1CCN(c2ccccc2)CC1", "Large T antigen (Simian virus 40)", 1.66],
  ["CCOc1ccc(N2C(=O)/C(=C/c3ccccn3)SC2=S)cc1", "Large T antigen (Simian virus 40)", 9.29],
  ["S=C(NCCc1ccccc1)N1CCCC1", "Large T antigen (Simian virus 40)", 7.81]
]}
